# MEASUREMENT CONDITIONS: in n-butyl acetate, 283.15 K
MEASUREMENT LABEL: solubility (mole fraction)
Please reply with the number alone, leaving off any unit.

QUERY: Please report the recorded solubility (mole fraction) for `CCC[C@@H]1CC(=O)N([C@@H](CC)C(N)=O)C1` .
RESULT: 0.0337

* * *

# MEASUREMENT CONDITIONS: in ethyl acetate, 308.15 K
MEASUREMENT LABEL: solubility (mole fraction)
Format: numeric value only, no unit, no commentary.

QUERY: Returns the measured solubility (mole fraction) for the input molecule. Input: `CCC[C@@H]1CC(=O)N([C@@H](CC)C(N)=O)C1`
RESULT: 0.275
